Molecular target: hA2BAR (Homo sapiens)
Construct: host or cells: HEK-293 (HEK-293-A2B) cell membranes
Sequence (P29275 whole entry): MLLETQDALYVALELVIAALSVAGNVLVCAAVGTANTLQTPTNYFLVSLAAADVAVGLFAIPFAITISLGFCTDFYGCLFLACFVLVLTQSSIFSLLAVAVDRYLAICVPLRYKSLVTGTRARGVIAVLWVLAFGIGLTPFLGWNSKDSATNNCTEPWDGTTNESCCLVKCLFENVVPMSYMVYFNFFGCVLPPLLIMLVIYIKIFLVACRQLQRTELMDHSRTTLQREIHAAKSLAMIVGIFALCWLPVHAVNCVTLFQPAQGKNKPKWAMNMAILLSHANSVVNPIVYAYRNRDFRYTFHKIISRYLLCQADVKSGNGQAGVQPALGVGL
Assay: Radioligand binding competition, [3H]DPCPX, membranes from HEK-293-A2B cells
Conditions: displacement of specific [3H]DPCPX binding in human HEK-293 cells, n = 3; read-out: Ki hA2B
Each entry falls into one class according to its Ki; the ranges are category 1: < 6 nM; category 2: ≥ 6 nM and < 100 nM; category 3: ≥ 100 nM

Worked examples, 6 molecules total:
{"MOLECULE": "CCOC(=O)C1=C(C)Nc2nc3ccc(F)cc3n2C1c1ccoc1 (centres unmarked) [15c]", "CATEGORY_LABEL": "category 2"}
{"MOLECULE": "CC1=C(C(=O)OC(C)C)C(c2ccco2)n2c(nc3cc(Br)c(Br)cc32)N1 (centres unmarked) [14r]", "CATEGORY_LABEL": "category 2"}
{"MOLECULE": "CC1=C(C(=O)OC(C)C)C(c2ccco2)n2c(nc3ccc(Br)cc32)N1 (centres unmarked) [15r]", "CATEGORY_LABEL": "category 3"}
{"MOLECULE": "CC1=C(C(=O)OC(C)C)C(c2ccco2)n2c(nc3cc(Br)ccc32)N1 (centres unmarked) [16r]", "CATEGORY_LABEL": "category 1"}
{"MOLECULE": "CCOC(=O)C1=C(C)Nc2nc3ccc(F)cc3n2C1c1ccsc1 (centres unmarked) [15g]", "CATEGORY_LABEL": "category 3"}
{"MOLECULE": "CCOC(=O)C1=C(C)Nc2nc3cc(Cl)ccc3n2C1c1ccco1 (centres unmarked) [16i]", "CATEGORY_LABEL": "category 2"}

Request: Form field 'band' for CC1=C(C(=O)OC(C)C)[C@@H](c2ccco2)n2c(nc3cc(F)ccc32)N1 [(S)-16b]
Response: category 1

Request: Into which category would you place CC1=C(C(=O)OC(C)C)[C@@H](c2ccoc2)n2c(nc3cc(Cl)ccc32)N1 [(R)-16l] ?
Response: category 1

Request: The entry to classify is CCOC(=O)C1=C(C)Nc2nc3cc(F)c(F)cc3n2C1c1ccsc1 (centres unmarked) [14g] ; which class holds it?
Response: category 3

Request: Band for the recorded Ki of CCOC(=O)C1=C(C)Nc2nc3cc(Cl)ccc3n2C1c1ccsc1 (centres unmarked) [16o] ?
Response: category 3

Request: Using the reported Ki, which band applies to CCOC(=O)C1=C(C)Nc2nc3cc(F)c(F)cc3n2C1c1ccoc1 (centres unmarked) [14c] ?
Response: category 2

Request: Which bin, given its Ki, does CC1=C(C(=O)OC(C)C)C(c2ccco2)n2c(nc3cc(Cl)c(Cl)cc32)N1 (centres unmarked) [14j] occupy?
Response: category 3

Request: Categorize the following entry: CCOC(=O)C1=C(C)Nc2nc3cc(F)ccc3n2C1c1cccs1 (centres unmarked) [16e]
Response: category 3

Request: Please report the category associated with CC1=C(C(=O)OC(C)C)C(c2cccs2)n2c(nc3cc(Br)ccc32)N1 (centres unmarked) [16v] , nothing else.
Response: category 3

Request: Hi there! Could you help me figure out the category for CCOC(=O)C1=C(C)Nc2nc3cc(Cl)ccc3n2[C@@H]1c1cocn1 [(S)-18c] please?
Response: category 1
